experiment: Cytotoxicity against human RXF393 cells assessed as cell growth at 10^-5 M after 48 hrs by sulforhodamine B assay; type: functional; conditions: RXF 393, 48 h, read-out: Activity
# key: entry, value: growth at 10 µM

MOLECULE: CC1=NN(c2cccc(Cl)c2)C(=O)/C1=C\c1cn(CC(O)Cn2cc(/C=C3\C(=O)N(c4cccc(Cl)c4)N=C3C)c3ccccc32)c2ccccc12
growth at 10 µM (%): 116
//
MOLECULE: O=C1Nc2ccccc2/C1=C/c1cn(CC(O)Cn2cc(/C=C3\C(=O)Nc4ccccc43)c3ccccc32)c2ccccc12 (stereo not given)
growth at 10 µM (%): -90.8
//
MOLECULE: COc1cc(/C=C2\C(=O)Nc3ccccc32)cc(OC)c1O
growth at 10 µM (%): 71.3
//
MOLECULE: O=C1NC(=O)C(=Cc2cn(CC(O)Cn3cc(C=C4C(=O)NC(=O)NC4=O)c4ccccc43)c3ccccc23)C(=O)N1
growth at 10 µM (%): 89.1
//
MOLECULE: CN1C(=O)C(=Cc2cn(CC(O)Cn3cc(C=C4C(=O)N(C)C(=O)N(C)C4=O)c4ccccc43)c3ccccc23)C(=O)N(C)C1=O
growth at 10 µM (%): 104
